Data provenance: patent US20110135636A1

- ASSAY SYSTEM: T1, recombinant human EGFR extracellular domain with 6xHis (human, UniProt P00533 25-645)
- T1 construct: In-house produced; also called 6xHis EGFR ECD; soluble human EGFR ECD; not shown: 6xHis tag
- PROTOCOL DETAILS: SPR, reference cycle of the run with mix N=6
RESULT TYPE: Rumax reference cycle (Ru)
Provide only the numeric value, understood in Ru.

[
  {
    "BINDER": "antibody 1030 (antibody, human IgG1, kappa, V domains shown, Chimeric IgG1 kappa) VH: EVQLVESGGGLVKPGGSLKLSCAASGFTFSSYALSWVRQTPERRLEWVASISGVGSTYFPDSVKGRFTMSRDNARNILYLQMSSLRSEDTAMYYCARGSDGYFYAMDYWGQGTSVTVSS VL: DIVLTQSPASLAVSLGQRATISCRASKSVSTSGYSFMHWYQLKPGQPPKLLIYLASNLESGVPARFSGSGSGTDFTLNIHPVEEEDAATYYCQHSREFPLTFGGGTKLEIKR",
    "RESULT TYPE": "Rumax reference cycle",
    "ENDPOINT VALUE": 87
  },
  {
    "BINDER": "antibody 992 (antibody, human IgG1, kappa, V domains shown, Chimeric mouse/human IgG1 kappa; the VL entry includes the human kappa constant region) VH: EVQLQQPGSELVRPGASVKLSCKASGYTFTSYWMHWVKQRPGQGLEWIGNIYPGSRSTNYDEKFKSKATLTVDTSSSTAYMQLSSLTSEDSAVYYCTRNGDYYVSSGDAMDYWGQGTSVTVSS VL: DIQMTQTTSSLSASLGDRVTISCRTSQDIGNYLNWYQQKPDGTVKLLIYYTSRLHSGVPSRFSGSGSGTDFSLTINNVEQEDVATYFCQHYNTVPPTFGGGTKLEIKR",
    "RESULT TYPE": "Rumax reference cycle",
    "ENDPOINT VALUE": 85
  },
  {
    "BINDER": "antibody 1347 (antibody, human IgG1, kappa, V domains shown, Chimeric IgG1 kappa) VH: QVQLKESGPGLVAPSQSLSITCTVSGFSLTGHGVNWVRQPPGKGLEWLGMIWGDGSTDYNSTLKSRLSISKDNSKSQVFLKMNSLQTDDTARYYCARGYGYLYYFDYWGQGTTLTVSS VL: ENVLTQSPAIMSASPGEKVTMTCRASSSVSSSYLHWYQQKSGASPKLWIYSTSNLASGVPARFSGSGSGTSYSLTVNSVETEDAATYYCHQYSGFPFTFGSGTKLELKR",
    "RESULT TYPE": "Rumax reference cycle",
    "ENDPOINT VALUE": 91
  },
  {
    "BINDER": "antibody 1261 (antibody, human IgG1, kappa, V domains shown, Chimeric IgG1 kappa) VH: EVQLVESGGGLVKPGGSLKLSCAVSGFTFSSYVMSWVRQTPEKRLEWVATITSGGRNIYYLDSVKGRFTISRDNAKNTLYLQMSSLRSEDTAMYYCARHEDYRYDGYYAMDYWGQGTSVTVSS VL: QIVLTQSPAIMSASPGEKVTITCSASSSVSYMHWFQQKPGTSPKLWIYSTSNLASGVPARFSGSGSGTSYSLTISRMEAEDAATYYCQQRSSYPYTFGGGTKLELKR",
    "RESULT TYPE": "Rumax reference cycle",
    "ENDPOINT VALUE": 135
  }
]

Query block: I would be grateful if you could share the reported Rumax reference cycle for antibody 1024 (antibody, human IgG1, kappa, V domains shown, Chimeric IgG1 kappa) VH: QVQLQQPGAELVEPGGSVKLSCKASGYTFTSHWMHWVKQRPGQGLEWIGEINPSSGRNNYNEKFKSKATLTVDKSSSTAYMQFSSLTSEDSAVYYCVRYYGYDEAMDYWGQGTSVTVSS VL: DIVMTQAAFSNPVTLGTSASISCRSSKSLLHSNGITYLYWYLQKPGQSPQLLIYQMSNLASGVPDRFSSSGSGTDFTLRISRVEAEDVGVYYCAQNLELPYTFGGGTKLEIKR .
Result block: 110
